Assay: chemical genetic growth profiling, strain panel (AID 1159580);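 note: tested at 20 µM; growth read once vehicle control cultures reached saturation at 30 °C; 1 = growth at the plate median or of vehicle wells; lower values mean less growth of the strain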
Details: S. cerevisiae deletion strains, growth OD, locus YLR221C, strain rsa3, stronger effect = lower value
In all, about 5,500 compounds went through this assay and about 2,000 (36%) were called active. Inconclusive results (about 18%) are left out. Some of the results follow.
Exercise: for every item that follows, state its recorded normalized growth.
Form rule: numeric answer, no unit written next to it.

I would be grateful if you could share the reported normalized growth for `COC(=O)/C=C/C(C)=C/C=C/C(C)=C/C=C/C=C(C)/C=C/C=C(C)/C=C/C(=O)O` .
1.02

Would you mind telling me what normalized growth value was observed for `C=CCc1ccc(O)c(OC)c1` ?
1.01

Return reported normalized growth; argument: `C=CCc1ccc(OC)cc1`
1.03

Bench note: what normalized growth did `CCC[C@H](N[C@@H](C)C(=O)N1[C@H](C(=O)O)C[C@@H]2CCCC[C@@H]21)C(=O)OCC` show?
1.01

For the compound CCC(C)C(=O)O[C@@H]1C[C@@]2(C)[C@H](c3ccoc3)OC(=O)CC23OC2(C)OC34[C@H](OC(=O)C(C)C)[C@@]3(O)[C@@H](OC(=O)C5(C)OC5C)[C@@]5(C)C[C@]3(O)[C@@](C)([C@H]5CC(=O)OC)C14O2 (stereo not given in full) , what normalized growth is on record?
0.994

---

Experiment: chemical genetic growth profiling, strain panel (AID 1159580);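 note: tested at 20 µM; growth read once vehicle control cultures reached saturation at 30 °C; 1 = growth at the plate median or of vehicle wells; lower values mean less growth of the strain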
Conditions: S. cerevisiae deletion strains, growth OD, locus YDR388W, stronger effect = lower value
Screen size: about 5,500 compounds; about 2,000 (36%) were called active. Roughly 18% stayed inconclusive and do not appear here. Some of the results follow.
MEASURE NAME: normalized growth
Enter the number alone.

Recorded normalized growth for COc1ccc(C(CN(C)C)C2(O)CCCCC2)cc1 (stereo unspecified) , please?
0.988

May I ask what normalized growth has been recorded for `Cc1ccc(S(=O)(=O)NC(=O)NN2CCCCCC2)cc1` ?
0.985

Name the reported normalized growth value associated with the compound C=C[C@@](C)(O)CCC1C(=C)CCC2[C@@](C)(CO)CCC[C@]12C (stereo partly specified)
1.02

Bench note: what normalized growth did `CN(C)CCN(Cc1ccccc1)c1ccccn1` show?
1

// query normalized growth value for entry `CCCCNC(=O)NS(=O)(=O)c1ccc(C)cc1`
0.974

# get_value(readout='normalized growth', item= CC1(C)CCC[C@@]2(C)C1[C@@H](O)C[C@]1(C)C2CC[C@@H]2[C@@]3(C)CC[C@H](C(C)(C)O)[C@@H]3CC[C@@]21C (stereo partly specified) )
0.986

---

Experiment: chemical genetic growth profiling, strain panel (AID 1159580);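 note: tested at 20 µM; growth read once vehicle control cultures reached saturation at 30 °C; 1 = growth at the plate median or of vehicle wells; lower values mean less growth of the strain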
Settings: S. cerevisiae deletion strains, growth OD, locus YMR205C, strain PFK2 (second series), stronger effect = lower value
The whole screen tested about 5,500 compounds, of which about 2,000 (36%) were called active. Another 18% or so got no clear call; they are omitted. This is one part of the list.
Give measured normalized growth for each item. Keep answers brief.

Query (compound): `Oc1c(Cl)cc(Cl)cc1C=Nc1nc(-c2ccc3ccccc3c2)cs1` ; field requested: normalized growth
0.741 (active)

For the compound shown here, `CCCN(CCC)C(=S)NC(=O)c1cccc([N+](=O)[O-])c1` , give the reported normalized growth.
0.956 (inactive)

Which measured normalized growth value corresponds to `O=C(Oc1cccc2[nH]ccc12)c1ccc(C(F)(F)F)cc1` ?
0.862 (inactive)

// query normalized growth value for entry `O=C(/C=C/c1ccc2c(c1)OCO2)Nc1ccc(Br)cc1`
0.938 (inactive)

I am curious: what normalized growth value has been reported for `Cc1ccc(S(=O)(=O)NC(=O)Nc2ccc(Sc3ccccc3)nc2Sc2ccccc2)cc1` ?
0.944 (inactive)

I am curious: what normalized growth value has been reported for `CC1(C)CC(=O)C=C(Sc2nc3ccccc3o2)C1` ?
0.948 (inactive)
